- Protocol summary: pH stability of TDF in SGF and FaSSIF
- Type: physicochemical
- Measurement setup: FaSSIF pH 6.8, 37°C, 1 mM TDF
Where a name gives a salt, the structure may show the parent alone.
Assay endpoint: half-life at 1 mM (h)
Give bare numbers, in h.

[in] So what's the measured half-life at 1 mM for this one? CC(C)OC(=O)OCOP(=O)(CO[C@H](C)Cn1cnc2c(N)ncnc21)OCOC(=O)OC(C)C [TDF, Tenofovir disoproxil fumarate]
[out] 16.6

====

- Test system: porcine pancrelipase (PL)
- Protocol summary: Hydrolysis of TDF by PL and effect of enzyme inhibitors
- Format: biochemical
- Measurement setup: pig, porcine pancrelipase (PL) in FaSSIF, with none; Control, FaSSIF; 10 μM TDF, PL, 37°C, no inhibitor; read-out: TDF t1/2
Structures can show the parent of a compound that is named as a salt.
Assay endpoint: half-life at 10 µM (min)
Numbers only, in min.

[in] # half-life at 10 µM lookup, item CC(C)OC(=O)OCOP(=O)(CO[C@H](C)Cn1cnc2c(N)ncnc21)OCOC(=O)OC(C)C [TDF, Tenofovir disoproxil fumarate]
[out] 6.35

====

- Protocol summary: in vitro
- Measurement setup: human, intestinal S9 fraction
Structures can show the parent of a compound that is named as a salt.
Assay endpoint: half-life at 10 µM (min)
Give bare numbers, in min.

[in] Name the reported half-life at 10 µM value associated with the compound CC(C)OC(=O)OCOP(=O)(CO[C@H](C)Cn1cnc2c(N)ncnc21)OCOC(=O)OC(C)C [TDF, Tenofovir disoproxil fumarate]
[out] 0.62

====

- Test system: P-gp
- Protocol summary: MDCK-MDR1 efflux studies
- Assay type: in vitro ADME, canine
- Measurement setup: dog, MDCK-MDR1, with none (0 µM GF918), MDCK-MDR1, 0 μM GF918, 120 min; (SEM)
Structures can show the parent of a compound that is named as a salt.
Assay endpoint: Papp B→A at 120 min, 5 µM (×10⁻⁶ cm/s)
Answers are plain numbers, in ×10⁻⁶ cm/s.

[in] What measured Papp B→A at 120 min, 5 µM is associated with CC(C)OC(=O)OCOP(=O)(CO[C@H](C)Cn1cnc2c(N)ncnc21)OCOC(=O)OC(C)C [TDF, Tenofovir disoproxil fumarate] on P-gp?
[out] 29.5

====

- Protocol summary: pH stability of TDF in SGF and FaSSIF
- Format: physicochemical
- Measurement setup: FaSSIF pH 9, 37°C, 1 mM TDF
Counter-ions that a name gives are not always drawn.
Assay endpoint: half-life at 1 mM (h)
One number for each entry, in h.

[in] Which half-life at 1 mM is listed for CC(C)OC(=O)OCOP(=O)(CO[C@H](C)Cn1cnc2c(N)ncnc21)OCOC(=O)OC(C)C [TDF, Tenofovir disoproxil fumarate] ?
[out] 2.9

====

- Protocol summary: in vivo
- Parameters: species or system Sprague-Dawley rats
- Measurement setup: male, Sprague-Dawley, rat, plasma, iv, given IV, AUC0-8h, read-out: TFV AUC, Median
Assay endpoint: AUC (ng·h/mL)
Give bare numbers, in ng·h/mL.

[in] Item under review: C[C@H](Cn1cnc2c(N)ncnc21)OCP(=O)(O)O [TFV, tenofovir] . Reported AUC?
[out] 3200

====

- System: rat intestinal S9
- Protocol summary: TDF stability in rat intestinal S9 fraction and effect of inhibitors
- Measurement setup: rat S9, 10 μM TDF, 37°C; 10 μM BNPP, 100 μM PMSF, 0.05% wt/vol EM1, 1 mM PP, 1 mM MP, 1 mM EP
Assay endpoint: TDF Rate Constant with inhibitor
Please give the number followed by its unit.

Reference set, count: 3
[in] Quick one: TDF Rate Constant with inhibitor for `COC(=O)c1ccc(O)cc1` ?
[out] -1.297 min⁻¹

[in] Fill in the blank: the reported TDF Rate Constant with inhibitor of O=S(=O)(F)Cc1ccccc1 [PMSF, phenylmethylsulfonyl fluoride] is ____.
[out] -1.064 min⁻¹

[in] Can you look up the measured TDF Rate Constant with inhibitor of `CCCOC(=O)c1ccc(O)cc1` for me?
[out] -0.196 min⁻¹

As a next step, examine the compound that follows.
[in] Form field: reported TDF Rate Constant with inhibitor of `CCOC(=O)c1ccc(O)cc1`
[out] -1.023 min⁻¹

====

- Test system: P-gp
- Protocol summary: in vitro
- Type: in vitro ADME
- Measurement setup: human, Caco-2, pH 7, with none (CsA 0.00 µM); read-out: TDF Papp, B to A
Counter-ions that a name gives are not always drawn.
Assay endpoint: Papp B→A at 120 min, 10 µM (×10⁻⁶ cm/s)
Numbers only, in ×10⁻⁶ cm/s.

[in] What is its Papp B→A at 120 min, 10 µM for P-gp? Entry: CC(C)OC(=O)OCOP(=O)(CO[C@H](C)Cn1cnc2c(N)ncnc21)OCOC(=O)OC(C)C [TDF, Tenofovir disoproxil fumarate]
[out] 8.16

====

- Test system: P-gp
- Protocol summary: MDCK-MDR1 efflux studies
- Assay type: in vitro ADME, canine
- Measurement setup: dog, MDCK-MDR1, with GF918 2 µM, MDCK-MDR1, 2 μM GF918, 120 min; (SEM)
Where a name gives a salt, the structure may show the parent alone.
Assay endpoint: Papp B→A at 120 min, 5 µM (×10⁻⁶ cm/s)
One number for each entry, in ×10⁻⁶ cm/s.

[in] Under P-gp: Papp B→A at 120 min, 5 µM value of CC(C)OC(=O)OCOP(=O)(CO[C@H](C)Cn1cnc2c(N)ncnc21)OCOC(=O)OC(C)C [TDF, Tenofovir disoproxil fumarate] ?
[out] 3.41

====

- Protocol summary: pH stability of TDF in SGF and FaSSIF
- Assay type: physicochemical
- Measurement setup: FaSSIF pH 11, 37°C, 1 mM TDF
Structures can show the parent of a compound that is named as a salt.
Assay endpoint: half-life at 1 mM (min)
Give bare numbers, in min.

[in] Reported half-life at 1 mM, compound CC(C)OC(=O)OCOP(=O)(CO[C@H](C)Cn1cnc2c(N)ncnc21)OCOC(=O)OC(C)C [TDF, Tenofovir disoproxil fumarate] : ____
[out] 3.4

====

- Tested on: P-gp
- Protocol summary: MDCK-MDR1 efflux studies
- Type: in vitro ADME, canine
- Measurement setup: dog, MDCK-MDR1, with none (0 µM GF918)
Counter-ions that a name gives are not always drawn.
Assay endpoint: Papp A→B at 120 min, 5 µM (×10⁻⁶ cm/s)
Numbers only, in ×10⁻⁶ cm/s.

[in] Could you share which Papp A→B at 120 min, 5 µM value was measured for CC(C)OC(=O)OCOP(=O)(CO[C@H](C)Cn1cnc2c(N)ncnc21)OCOC(=O)OC(C)C [TDF, Tenofovir disoproxil fumarate] ?
[out] 0.67

====

- System: P-gp
- Protocol summary: in vitro
- Format: in vitro ADME
- Measurement setup: human, Caco-2, pH 7, with none (CsA 0.00 µM); read-out: TDF E.R. (efflux ratio)
Structures can show the parent of a compound that is named as a salt.
Assay endpoint: efflux ratio at 120 min, 10 µM
Give bare numbers.

[in] Need efflux ratio at 120 min, 10 µM of CC(C)OC(=O)OCOP(=O)(CO[C@H](C)Cn1cnc2c(N)ncnc21)OCOC(=O)OC(C)C [TDF, Tenofovir disoproxil fumarate] , thanks.
[out] 12

====

- Tested on: P-gp
- Protocol summary: in vitro
- Type: in vitro ADME
- Measurement setup: human, Caco-2, pH 7, with none (CsA 0.00 µM), Caco-2, 10 μM TDF, 120 min, no inhibitor (CsA 0.00 µM)
Where a name gives a salt, the structure may show the parent alone.
Assay endpoint: Papp A→B at 120 min, 10 µM (×10⁻⁶ cm/s)
Give bare numbers, in ×10⁻⁶ cm/s.

[in] Which Papp A→B at 120 min, 10 µM value belongs to CC(C)OC(=O)OCOP(=O)(CO[C@H](C)Cn1cnc2c(N)ncnc21)OCOC(=O)OC(C)C [TDF, Tenofovir disoproxil fumarate] ?
[out] 0.7
